Quick reference for PBM binding z-score among some sequences
# Tested on: PXR:RXRa (NR concentration 270 nM, RXRa partner concentration 90 nM)
# procedureText: PBM binding z-score (relative to random genomic background probes); higher = stronger binding; sequences stand for … in GC…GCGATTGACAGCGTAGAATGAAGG
Give your answer as a number; write no unit.

Solved entries:
| seqString | number |
| --- | --- |
| ACGATTAGTTGAGACGAGGGCAACCGATAGGTTG | 1.11 |
| TCTTGTAGATCAAGCGGGTTAAGAAAGCCTGAGT | 0.313 |
| CCTACTGGGCCAAAAAGGACATTGATGCCGATAA | -0.396 |
| GTACCAAGGTGAATAGGCCGTTGATGAGTAGGCG | 0.0653 |
| CAACCTAGGTCACAGAGGTCAAAGTCCGTGCGTA | 6.95 |

Reported PBM binding z-score, sequence ATATGTAGGTTAGCTGGGGTCATGCAGACTAGGC : ____
6.14

What measured PBM binding z-score goes with TTACCAAGGTGAGCTGAGGTCGTTCATCCAACTC ?
5.33

Quick one: PBM binding z-score for CTCGAAAGGTCGGTTGTGGTGAGTATACGGATAA ?
1.13

So what does the record say about PBM binding z-score for CGAACTAGGTCATACAGGACAGTGAATACATTGA ?
1.48

What value of measured PBM binding z-score is listed for GCTTACGGGTCAATGGTTATAGCATGAATAGAAT ?
2.21

What value of PBM binding z-score has been reported for the following sequence? TCAGGCAGGTGAAGGTAACTCAGGTACGCAGTCG
0.0794

Name the reported PBM binding z-score value associated with the sequence GCTGCTAGGTCAACTGATGGTCAGCTATAGCTCG
1.3

What measured PBM binding z-score goes with TCGAGTAGGTTAGTCGAGGCATTCAGCCAACATA ?
-0.24

# input sequence: TCTATTAGTTGAAGGGCAACCTACGAGTCCGTTT ; wanted: its PBM binding z-score
0.858

I am curious: what PBM binding z-score value has been reported for TCAGACAGGTGAAGGTAACTCGGGTACGCAGTCG ?
0.846

# query: PBM binding z-score of entry CCTACTGGGCCAAAAGGGTCATTGATGCCGATAA
3.16

Which PBM binding z-score is listed for CCTACTGGGCCATTCAAAGGTCATTGATCATATG ?
5

Quick one: PBM binding z-score of AGTCAAAGTTCACTAGGTAAAGTAAGATTCAGCT ?
3.9

Bench note: what PBM binding z-score did GCGACTGGGGCAAAGCAGGTTACCAGAAGGTTGG show?
0.34

Report PBM binding z-score for CCTGCTAGGTCATGGTCGGCTAATCTACAGTATG please.
1.41

###

# System: VDR:RXRa (NR concentration 270 nM, RXRa partner concentration 90 nM)
# procedureText: PBM binding z-score (relative to random genomic background probes); higher = stronger binding; sequences stand for … in GC…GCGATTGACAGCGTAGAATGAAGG
Known PBM binding z-score of a selection of sequences
// return a plain number; no unit text

Some solved entries appear below for comparison.
| seqString | assayedTarget | PBM binding z-score |
| --- | --- | --- |
| CAAACTAGGTCACCGGCAGGTCAAAGTCCGCATG | VDR:RXRa (NR concentration 270 nM, RXRa partner concentration 90 nM) | 5.36 |
| CCTAGCAGGCCAATCTGGGTCACTGAAGGCTTGA | VDR:RXRa (NR concentration 270 nM, RXRa partner concentration 90 nM) | 0.552 |
| CCTACTGGGCCACAAAAGGTCATTGATTCAGTGA | VDR:RXRa (NR concentration 270 nM, RXRa partner concentration 90 nM) | 3.98 |

Value lookup for PBM binding z-score; key = TCTATTAGTTGATGAGGGCAACCGAAACAGCGGA
1.15

Recorded PBM binding z-score for TCGAGTAGGTTAGTCGGGGCATGCAGCCAACATA , please?
1.24

Which PBM binding z-score is reported for this sequence? ATCTCTAGGTAAACTTCAGTGAAAGATCGATAGA
0.36

# get_value(readout='PBM binding z-score', item= GTACCAAGGAGAATAGGTCGTTGATGAGTAGGCG )
0.0366

Data request, read-out PBM binding z-score, for CCCGACAGGTGAGAAGGTAACTCAGCCTCGATTA
-0.17

Can you share its PBM binding z-score? I mean this sequence: CGAACGAGGGCATGAGTTTATAGCAAATGCCGAT
3.02

###

# Tested on: THRa homodimer (NR concentration 90 nM)
# procedureText: PBM binding z-score (relative to random genomic background probes); higher = stronger binding; sequences stand for … in GC…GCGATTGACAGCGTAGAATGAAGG
The sequences listed here are annotated with their PBM binding z-score.
Please give only the number in your answer, with no unit.

| seqString | number |
| --- | --- |
| ATATGTAGGTTATATCCGGGTCATTCAGGCTATG | 2.73 |
| GCAACTGGGGCATCAGCAGGTTACCATAACTTAA | 0.19 |
| CGTCACAGTTCAAGGTAACGTAACAGAAAGCAGC | 1.24 |
| CGTCCAAGGTCAAAGGTAAGTGAAGAGATGACGG | 1.96 |
| CCTAGTTAGTCAAGGTCACACACGCTATAGGTAC | 4.29 |

Hi! What's the reported PBM binding z-score for ATCGAAAGGTCGAGGTGAGTATAGAGAAAGGGAA on THRa homodimer (NR concentration 90 nM)?
0.624

Recall the recorded PBM binding z-score for TCTTGTAGATCAAAGGTTACGAAAGCCGAAGCCT with THRa homodimer (NR concentration 90 nM) and state it.
-0.301

Write down the reported PBM binding z-score of CGTCCAAGGTCAGCAGGTTAGTGAAAGCGACGTG , test system: THRa homodimer (NR concentration 90 nM).
2.06

# returns recorded PBM binding z-score (system: THRa homodimer (NR concentration 90 nM)) for CCTCGCAGGCCAGGGTCACTCAAGCATTTCGCTT
1.2

Lab request: please report PBM binding z-score under test system THRa homodimer (NR concentration 90 nM) for CGTCCAAGGTCTGAGAGGTCAGTGAATGCCGAGT
1.29

What PBM binding z-score appears in the records for this sequence with THRa homodimer (NR concentration 90 nM)? TCGAGTAGGCTACCAATGGGGCATTCAGCTTTCT
-0.931

Notebook entry, THRa homodimer (NR concentration 90 nM) assay: PBM binding z-score of TAGCCTAAGTCATTGGGCCAGTATAGTACGCATC = ?
-0.958

###

# System: PPARg:RXRa 270nM:90nM, anti-RXR (NR concentration 270 nM, RXRa partner concentration 90 nM)
# procedureText: PBM binding z-score (relative to random genomic background probes); higher = stronger binding; sequences stand for … in GC…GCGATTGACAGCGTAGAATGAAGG
measuredProperty: PBM binding z-score
Response field accepts a number only; no unit should be typed.

| seqString | PBM binding z-score |
| --- | --- |
| CCTAGTTGGTCAAGATCACACACGCTATAGGTAC | 0.452 |

Shift focus to the following entry.
Item GCTATTAGTTGAACGGGCAACCGAATGATTCTCG has what recorded PBM binding z-score?
0.00975

###

# System: RARg:RXRa (NR concentration 270 nM, RXRa partner concentration 90 nM)
# procedureText: PBM binding z-score (relative to random genomic background probes); higher = stronger binding; sequences stand for … in GC…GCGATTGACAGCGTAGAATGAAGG
Use criterion met when the recorded PBM binding z-score is no lower than 2; use criterion not met when it is lower.

Worked examples follow.
| seqString | discreteLabel |
| --- | --- |
| CCTTACGCGTCACGAGGTTATAGCACGACGAGCG | criterion not met |
| GCTAGCAGGCCATTTGTGTCACTCAATGACGGGC | criterion not met |
| TCTCGCAGGACACGAAGGTCAGAGCTTTCCAGAG | criterion met |
| CCTGCTAGGTCAATGGTCAGGTAAAGCAGCTCGC | criterion met |
| ATCGAAAGGTCGACGAGGTGAGTAGACACCGTTT | criterion met |
| CCTACTGGGCCAAAAAGGTCATAGATGCCGATAA | criterion met |
| AATACAGGGTCACTAGCCCAGAGTAGGTACGAAT | criterion met |
| ACAGACAGGTGAGTGAATGTAACTCAGCTGGACG | criterion not met |
| CCTTACGGGTGAAGGTTATAGCACGGGTGGTACG | criterion not met |
| CTCGAAAGGTCGGTTGAGCTGAGTATACGGATAA | criterion met |

Identify whether the reported PBM binding z-score of the following sequence is 2 or greater: TCATATAGGTAATACAGGTTAAAGTCGGCATCTA
criterion not met

Does the reported PBM binding z-score for GGAACGAGGGCATTCGAGTTGATAGCTTGGCGAT fall at or above the 2 mark?
criterion not met

Please check the record CCTATTAGTTGACGATAAGGGCAACCGAAGCTCG and state if its PBM binding z-score is at or above 2.
criterion not met

Dear colleague, could you confirm whether CTAACAAGGTGAACAAGGTCGTTGATTACTATTC has PBM binding z-score at or above 2?
criterion not met

Would you say TCTGCTAGGTCAGTTGGTCAACTAACGAGCTGCC shows PBM binding z-score at minimum 2?
criterion met

# credit: the supplement of paper PMC6555819
